All values here come from patent US20260373248A1.

Test system: luciferase
assay-method-text: Luciferase expression after local (intramuscular or subcutaneous) administration of mRNA
Type: in vivo
condition-description: subcutaneous, mRNA 0.01 mpk, 6 hours
Non-standard residues stand in square brackets, D forms with d. Residues, ends and D or L forms follow the SMILES beside them. *: point of attachment. Gly(N-(3-decanoyloxypropyl)) = CCCCCCCCCC(=O)OCCCNCC(=O)O; N(3-lauroyloxypropyl)Gly = CCCCCCCCCCCC(=O)OCCCNCC(=O)O; N(3-imidazol-1-ylpropyl)Gly = O=C(O)CNCCCn1ccnc1; Gly(N-3-morpholinopropyl) = O=C(O)CNCCCN1CCOCC1; N(2-ethylhexyl)Gly = CCCCC(CC)CNCC(=O)O; Gly(N-dodecyl) = CCCCCCCCCCCCNCC(=O)O; N(octyl)Gly = CCCCCCCCNCC(=O)O; NHexGly = CCCCCCNCC(=O)O; For = O=C*
Measured SC Flux values are reported for all entries that follow.
readout-kind: SC Flux (p/s)

molecule	recorded-measurement
CCCCCCCCCC(=O)OCCCN(CC(=O)N(CCCOC(=O)CCCCCCCCC)CC(=O)N(CCCCCC)CC(=O)N(CCCOC(=O)CCCCCCCCC)CC(=O)N(CCCOC(=O)CCCCCCCCC)CC(=O)N(CCCCCC)CC(N)=O)C(=O)CNCCCn1ccnc1 [Compound 109] (H-[N(3-imidazol-1-ylpropyl)Gly][Gly(N-(3-decanoyloxypropyl))][Gly(N-(3-decanoyloxypropyl))][NHexGly][Gly(N-(3-decanoyloxypropyl))][Gly(N-(3-decanoyloxypropyl))][NHexGly]-NH2)	1.00E+08
CCCCCCCCCCCC(=O)OCCCN(CC(=O)N(CC(N)=O)CC(CC)CCCC)C(=O)CN(CCCCCCCC)C(=O)CN(CC(CC)CCCC)C(=O)CN(CCCOC(=O)CCCCCCCCCCC)C(=O)CN(CCCCCCCC)C(=O)CN(C=O)CCCN1CCOCC1 (centres unmarked) [Compound 74] (For-[Gly(N-3-morpholinopropyl)][N(octyl)Gly][N(3-lauroyloxypropyl)Gly][N(2-ethylhexyl)Gly][N(octyl)Gly][N(3-lauroyloxypropyl)Gly][N(2-ethylhexyl)Gly]-NH2)	2.11E+08
CCCCCCCCCCCCN(C=O)CC(=O)N(CCCOC(=O)CCCCCCCCCCC)CC(=O)N(CC(=O)N(CCCn1ccnc1)CC(=O)N(CC(=O)N(CCCOC(=O)CCCCCCCCCCC)CC(=O)N(CCCCCCCCCCCC)CC(N)=O)CC(CC)CCCC)CC(CC)CCCC (centres unmarked) [Compound 85] (For-[Gly(N-dodecyl)][N(3-lauroyloxypropyl)Gly][N(2-ethylhexyl)Gly][N(3-imidazol-1-ylpropyl)Gly][N(2-ethylhexyl)Gly][N(3-lauroyloxypropyl)Gly][Gly(N-dodecyl)]-NH2)	4.21E+07
CCCCCCCCCC(=O)OCCCN(C=O)CC(=O)N(CC(=O)N(CCCOC(=O)CCCCCCCCC)CC(=O)N(CCCN1CCOCC1)CC(=O)N(CCCOC(=O)CCCCCCCCC)CC(=O)N(CC(=O)N(CCCOC(=O)CCCCCCCCC)CC(N)=O)CC(CC)CCCC)CC(CC)CCCC (centres unmarked) [Compound 121] (For-[Gly(N-(3-decanoyloxypropyl))][N(2-ethylhexyl)Gly][Gly(N-(3-decanoyloxypropyl))][Gly(N-3-morpholinopropyl)][Gly(N-(3-decanoyloxypropyl))][N(2-ethylhexyl)Gly][Gly(N-(3-decanoyloxypropyl))]-NH2)	5.20E+07
CCCCCCCCCCCC(=O)OCCCN(CC(=O)N(CC(=O)N(CCCCCC)CC(=O)N(CCCOC(=O)CCCCCCCCCCC)CC(=O)N(CC(=O)N(CCCCCC)CC(N)=O)CC(CC)CCCC)CC(CC)CCCC)C(=O)CNCCCn1ccnc1 (centres unmarked) [Compound 72] (H-[N(3-imidazol-1-ylpropyl)Gly][N(3-lauroyloxypropyl)Gly][N(2-ethylhexyl)Gly][NHexGly][N(3-lauroyloxypropyl)Gly][N(2-ethylhexyl)Gly][NHexGly]-NH2)	3.73E+07
